Tested on: KP-N-YN;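 further: growth inhibition of KP-N-YN cells, read out with a cell viability assay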
Assay: cells
Format: functional, cell-based, Homo sapiens
Settings: kp-n-yn
Description: SANGER: Inhibition of human KP-N-YN cell growth in a cell viability assay.
propertyLabel: IC50

{"sequenceData": "CISPLATIN", "propertyLabel": "IC50", "val": "581 µM"}

---

System: NCI-H460;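 further: cell viability assay scoring growth inhibition of human NCI-H460 cells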
Experiment: cells
Format: functional, cell-based, Homo sapiens
Conditions: Homo sapiens, NCI-H460
Description: SANGER: Inhibition of human NCI-H460 cell growth in a cell viability assay.
pIC50: −log10 of the molar value.

{"molecule": "CCN(CC)CCCCNc1ncc2cc(-c3cc(OC)cc(OC)c3)c(NC(=O)NC(C)(C)C)nc2n1 [PD-173074]", "relationSymbol": "<", "pIC50": 5.70}
{"molecule": "Cc1cc([N+](=O)[O-])ccc1NS(=O)(=O)c1cc(Cl)ccc1Cl", "relationSymbol": "=", "pIC50": 5.44}
{"molecule": "Cc1cn(-c2cc(NC(=O)c3ccc(C)c(Nc4nccc(-c5cccnc5)n4)c3)cc(C(F)(F)F)c2)cn1 [NILOTINIB]", "relationSymbol": "<", "pIC50": 5.70}
{"molecule": "COc1cc2c(Nc3ccc(NC(=O)c4ccccc4)cc3)ncnc2cc1OCCCN1CCOCC1", "relationSymbol": "=", "pIC50": 5.51}
{"molecule": "COc1cccc2c1C(=O)c1c(O)c3c(c(O)c1C2=O)C[C@@](O)(C(=O)CO)C[C@@H]3O[C@H]1C[C@H](N)[C@H](O)[C@H](C)O1 [DOXORUBICIN]", "relationSymbol": "=", "pIC50": 7.90}

---

System: SW 954;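 further: growth inhibition of SW954 human cancer cells, read out as cell viability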
Experiment: cells
Type: functional, cell-based, Homo sapiens
Settings: Homo sapiens, SW 954
Description: SANGER: Inhibition of human SW954 cell growth in a cell viability assay.
propertyLabel: IC50

{"compound": "CO[C@H]1C[C@@H]2CC[C@@H](C)[C@@](O)(O2)C(=O)C(=O)N2CCCC[C@H]2C(=O)O[C@H]([C@H](C)C[C@@H]2CC[C@@H](OC(=O)C(C)(CO)CO)[C@H](OC)C2)CC(=O)[C@H](C)/C=C(\\C)[C@@H](O)[C@@H](OC)C(=O)[C@H](C)C[C@H](C)/C=C/C=C/C=C/1C [TEMSIROLIMUS]", "val": "> 0.2 µM"}
{"compound": "Cc1cc([N+](=O)[O-])ccc1NS(=O)(=O)c1cc(Cl)ccc1Cl", "val": "7.26 µM"}
{"compound": "Cc1ccc(-c2c(C(=O)CCl)n(CCCO)c3ncnc(N)c23)cc1", "val": "> 4 µM"}
{"compound": "N#Cc1c(O)c2c(-c3ccc(-c4ccccc4O)cc3)csc2[nH]c1=O", "val": "> 1.02 µM"}
{"compound": "COc1cccc2c1C(=O)c1c(O)c3c(c(O)c1C2=O)C[C@@](O)(C(=O)CO)C[C@@H]3O[C@H]1C[C@H](N)[C@H](O)[C@H](C)O1 [DOXORUBICIN]", "val": "0.0169 µM"}
{"compound": "Cc1cn(-c2cc(NC(=O)c3ccc(C)c(Nc4nccc(-c5cccnc5)n4)c3)cc(C(F)(F)F)c2)cn1 [NILOTINIB]", "val": "> 2 µM"}
{"compound": "CC1(C)CNc2cc(NC(=O)c3cccnc3NCc3ccncc3)ccc21 [MOTESANIB]", "val": "> 2 µM"}
{"compound": "COc1cc(N2CCN(C)CC2)ccc1Nc1ncc2c(n1)N(C)c1ccccc1C(=O)N2C", "val": "4.85 µM"}
{"compound": "COc1cc2c(Nc3ccc(NC(=O)c4ccccc4)cc3)ncnc2cc1OCCCN1CCOCC1", "val": "0.836 µM"}
{"compound": "C#Cc1cccc(Nc2ncnc3cc(OCCOC)c(OCCOC)cc23)c1 [ERLOTINIB]", "val": "> 2 µM"}
{"compound": "Nc1cccc2c1CN(C1CCC(=O)NC1=O)C2=O (stereo unspecified) [LENALIDOMIDE]", "val": "> 5 µM"}

Provenance of the data: ChEMBL document CHEMBL1201861
